All values here come from patent US10916331B2.

TARGET_ENTITY: CDK7 (Homo sapiens)
Construct: purchased Discoverx (Kinomescan); host or cells: E. coli BL21-derived host (T7 phage) or HEK-293
Sequence (P50613 whole entry): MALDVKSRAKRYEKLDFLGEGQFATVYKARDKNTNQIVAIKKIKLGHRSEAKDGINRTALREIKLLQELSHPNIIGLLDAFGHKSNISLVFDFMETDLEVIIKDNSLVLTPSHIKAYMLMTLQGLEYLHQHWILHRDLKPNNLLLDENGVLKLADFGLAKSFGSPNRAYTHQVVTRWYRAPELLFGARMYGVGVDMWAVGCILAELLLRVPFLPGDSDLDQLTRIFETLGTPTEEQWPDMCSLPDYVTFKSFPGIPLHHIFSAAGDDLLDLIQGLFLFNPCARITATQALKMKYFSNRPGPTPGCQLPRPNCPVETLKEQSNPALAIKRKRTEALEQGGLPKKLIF
METHOD_NOTES: Kinomescan active site-directed competition binding assay
RUN_PARAMETERS: 11-point dose response, read-out: Binding Affinity (Kd)
EXPERIMENTAL_ENDPOINT: Kd (nM)
Write the value in nM as a bare number.

Need Kd, item COC(=O)Nc1nc2ccc(C(=O)c3ccccc3)cc2[nH]1 [MBZ, mebendazole] 390

###

TARGET_ENTITY: JNK3 (Homo sapiens)
Sequence (P53779 whole entry): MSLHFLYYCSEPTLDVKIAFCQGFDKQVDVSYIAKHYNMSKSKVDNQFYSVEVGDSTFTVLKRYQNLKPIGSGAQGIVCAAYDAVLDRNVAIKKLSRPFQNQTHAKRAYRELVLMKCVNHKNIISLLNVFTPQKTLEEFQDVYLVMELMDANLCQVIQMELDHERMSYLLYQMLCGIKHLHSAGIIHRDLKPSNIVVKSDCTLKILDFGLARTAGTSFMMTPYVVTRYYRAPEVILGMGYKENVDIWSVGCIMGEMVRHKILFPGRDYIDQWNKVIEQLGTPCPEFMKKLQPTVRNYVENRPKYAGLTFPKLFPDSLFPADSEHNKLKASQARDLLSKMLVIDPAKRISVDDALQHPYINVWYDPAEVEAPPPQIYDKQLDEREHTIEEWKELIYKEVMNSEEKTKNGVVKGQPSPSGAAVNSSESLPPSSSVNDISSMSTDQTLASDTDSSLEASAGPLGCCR
METHOD_NOTES: Kinomescan active site-directed competition binding assay
RUN_PARAMETERS: 11-point dose response, read-out: Binding Affinity (Kd)
EXPERIMENTAL_ENDPOINT: Kd (nM)
The reply should contain only the number, in nM.

Suppose we examine the compound COC(=O)Nc1nc2ccc(C(=O)c3ccccc3)cc2[nH]1 [MBZ, mebendazole] ; what Kd value has been reported? 410

###

TARGET_ENTITY: JNK2 (Homo sapiens)
Sequence (P45984 whole entry): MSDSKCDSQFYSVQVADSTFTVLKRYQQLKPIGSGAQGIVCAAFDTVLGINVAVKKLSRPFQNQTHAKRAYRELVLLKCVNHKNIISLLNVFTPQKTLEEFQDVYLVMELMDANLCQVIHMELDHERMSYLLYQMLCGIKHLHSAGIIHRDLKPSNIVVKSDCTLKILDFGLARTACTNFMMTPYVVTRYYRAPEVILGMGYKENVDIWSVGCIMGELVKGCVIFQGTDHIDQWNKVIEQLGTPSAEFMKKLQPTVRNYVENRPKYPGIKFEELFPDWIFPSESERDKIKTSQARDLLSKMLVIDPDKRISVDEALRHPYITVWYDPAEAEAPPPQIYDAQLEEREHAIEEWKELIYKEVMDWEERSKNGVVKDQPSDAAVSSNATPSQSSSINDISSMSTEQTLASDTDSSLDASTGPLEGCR
METHOD_NOTES: Kinomescan active site-directed competition binding assay
RUN_PARAMETERS: 11-point dose response, read-out: Binding Affinity (Kd)
EXPERIMENTAL_ENDPOINT: Kd

Query (molecule): COC(=O)Nc1nc2ccc(C(=O)c3ccccc3)cc2[nH]1 [MBZ, mebendazole] ; field requested: Kd 1090 nM

###

TARGET_ENTITY: ABL1-phosphorylated (Homo sapiens, UniProt P00519)
METHOD_NOTES: Kinomescan active site-directed competition binding assay
RUN_PARAMETERS: 11-point dose response, read-out: Binding Affinity (Kd)
EXPERIMENTAL_ENDPOINT: pKd
Remember, pKd is on a log scale: it is -log10 of the molar concentration.

Fill blank: measured pKd of the molecule COC(=O)Nc1nc2ccc(C(=O)c3ccccc3)cc2[nH]1 [MBZ, mebendazole] is ____. 6.92

###

TARGET_ENTITY: DYRK1B (Homo sapiens)
Sequence (Q9Y463 whole entry): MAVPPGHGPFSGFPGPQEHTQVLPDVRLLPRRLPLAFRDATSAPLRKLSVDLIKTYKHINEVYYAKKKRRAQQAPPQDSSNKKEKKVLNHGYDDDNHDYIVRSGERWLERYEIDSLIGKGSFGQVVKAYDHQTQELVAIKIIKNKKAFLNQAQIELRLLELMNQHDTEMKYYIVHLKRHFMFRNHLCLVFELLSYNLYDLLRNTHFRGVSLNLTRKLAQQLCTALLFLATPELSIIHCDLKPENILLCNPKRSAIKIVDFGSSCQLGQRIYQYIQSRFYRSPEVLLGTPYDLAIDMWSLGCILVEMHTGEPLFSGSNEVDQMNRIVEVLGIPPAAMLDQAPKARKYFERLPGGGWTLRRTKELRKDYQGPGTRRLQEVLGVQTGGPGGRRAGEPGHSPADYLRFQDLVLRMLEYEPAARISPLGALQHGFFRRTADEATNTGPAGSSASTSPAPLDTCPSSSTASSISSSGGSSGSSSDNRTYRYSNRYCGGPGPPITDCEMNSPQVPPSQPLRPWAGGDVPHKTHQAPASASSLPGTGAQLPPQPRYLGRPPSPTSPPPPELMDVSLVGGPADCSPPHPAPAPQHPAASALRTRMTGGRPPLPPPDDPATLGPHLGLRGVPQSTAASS
METHOD_NOTES: Kinomescan active site-directed competition binding assay
RUN_PARAMETERS: 11-point dose response, read-out: Binding Affinity (Kd)
EXPERIMENTAL_ENDPOINT: pKd
FYI, pKd means -log10 of a concentration in mol per litre.

Can you share its pKd? I mean this molecule: `COC(=O)Nc1nc2ccc(C(=O)c3ccccc3)cc2[nH]1` 6.47

###

TARGET_ENTITY: PDGFR-A (Homo sapiens, UniProt P16234)
Sequence (P16234 24-1089): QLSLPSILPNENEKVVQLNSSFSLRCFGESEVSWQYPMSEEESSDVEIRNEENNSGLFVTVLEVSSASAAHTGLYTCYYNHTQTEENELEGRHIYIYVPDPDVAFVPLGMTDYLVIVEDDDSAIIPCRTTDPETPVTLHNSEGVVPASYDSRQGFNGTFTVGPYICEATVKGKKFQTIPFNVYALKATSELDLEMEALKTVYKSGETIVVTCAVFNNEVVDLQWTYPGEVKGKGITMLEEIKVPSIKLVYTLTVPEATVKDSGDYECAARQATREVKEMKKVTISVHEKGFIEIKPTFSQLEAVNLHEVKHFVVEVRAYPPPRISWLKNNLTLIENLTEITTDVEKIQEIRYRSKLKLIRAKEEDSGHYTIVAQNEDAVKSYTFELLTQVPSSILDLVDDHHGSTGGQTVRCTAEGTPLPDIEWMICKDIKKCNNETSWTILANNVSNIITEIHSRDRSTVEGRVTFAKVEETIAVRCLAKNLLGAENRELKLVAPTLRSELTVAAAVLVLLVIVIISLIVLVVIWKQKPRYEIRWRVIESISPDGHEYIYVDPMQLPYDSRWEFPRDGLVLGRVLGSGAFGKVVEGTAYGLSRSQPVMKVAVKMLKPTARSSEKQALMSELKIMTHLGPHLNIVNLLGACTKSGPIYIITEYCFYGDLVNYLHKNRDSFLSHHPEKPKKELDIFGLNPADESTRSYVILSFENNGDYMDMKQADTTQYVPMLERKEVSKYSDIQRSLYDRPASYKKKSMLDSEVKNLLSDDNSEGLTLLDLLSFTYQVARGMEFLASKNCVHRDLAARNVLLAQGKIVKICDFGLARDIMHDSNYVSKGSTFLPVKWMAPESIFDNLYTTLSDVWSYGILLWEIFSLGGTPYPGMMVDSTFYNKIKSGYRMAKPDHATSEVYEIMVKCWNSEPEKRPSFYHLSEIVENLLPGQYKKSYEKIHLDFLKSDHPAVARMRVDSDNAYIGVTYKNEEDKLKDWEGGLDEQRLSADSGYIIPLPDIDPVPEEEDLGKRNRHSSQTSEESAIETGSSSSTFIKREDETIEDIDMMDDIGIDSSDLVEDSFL
METHOD_NOTES: Kinomescan active site-directed competition binding assay
RUN_PARAMETERS: 11-point dose response, read-out: Binding Affinity (Kd)
EXPERIMENTAL_ENDPOINT: Kd (nM)
Answer format: numeric, nM implied, no suffix.

# lookup: Kd of `COC(=O)Nc1nc2ccc(C(=O)c3ccccc3)cc2[nH]1` 820

###

TARGET_ENTITY: P38-alpha (Homo sapiens)
Sequence (Q16539 whole entry): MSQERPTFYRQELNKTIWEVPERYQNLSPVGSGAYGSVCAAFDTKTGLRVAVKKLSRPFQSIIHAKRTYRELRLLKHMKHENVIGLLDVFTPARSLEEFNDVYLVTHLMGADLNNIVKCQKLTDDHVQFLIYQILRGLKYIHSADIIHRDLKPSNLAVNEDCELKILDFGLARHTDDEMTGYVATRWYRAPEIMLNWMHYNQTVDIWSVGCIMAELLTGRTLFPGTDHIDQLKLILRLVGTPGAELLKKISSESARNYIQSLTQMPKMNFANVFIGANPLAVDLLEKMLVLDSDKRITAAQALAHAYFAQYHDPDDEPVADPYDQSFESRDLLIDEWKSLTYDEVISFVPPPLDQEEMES
METHOD_NOTES: Kinomescan active site-directed competition binding assay
RUN_PARAMETERS: 11-point dose response, read-out: Binding Affinity (Kd)
EXPERIMENTAL_ENDPOINT: Kd (µM)
Provide only the numeric value, understood in µM.

Return reported Kd; argument: `COC(=O)Nc1nc2ccc(C(=O)c3ccccc3)cc2[nH]1` 1.66

###

TARGET_ENTITY: PDGFR-B (Homo sapiens)
Sequence (P09619 33-1106): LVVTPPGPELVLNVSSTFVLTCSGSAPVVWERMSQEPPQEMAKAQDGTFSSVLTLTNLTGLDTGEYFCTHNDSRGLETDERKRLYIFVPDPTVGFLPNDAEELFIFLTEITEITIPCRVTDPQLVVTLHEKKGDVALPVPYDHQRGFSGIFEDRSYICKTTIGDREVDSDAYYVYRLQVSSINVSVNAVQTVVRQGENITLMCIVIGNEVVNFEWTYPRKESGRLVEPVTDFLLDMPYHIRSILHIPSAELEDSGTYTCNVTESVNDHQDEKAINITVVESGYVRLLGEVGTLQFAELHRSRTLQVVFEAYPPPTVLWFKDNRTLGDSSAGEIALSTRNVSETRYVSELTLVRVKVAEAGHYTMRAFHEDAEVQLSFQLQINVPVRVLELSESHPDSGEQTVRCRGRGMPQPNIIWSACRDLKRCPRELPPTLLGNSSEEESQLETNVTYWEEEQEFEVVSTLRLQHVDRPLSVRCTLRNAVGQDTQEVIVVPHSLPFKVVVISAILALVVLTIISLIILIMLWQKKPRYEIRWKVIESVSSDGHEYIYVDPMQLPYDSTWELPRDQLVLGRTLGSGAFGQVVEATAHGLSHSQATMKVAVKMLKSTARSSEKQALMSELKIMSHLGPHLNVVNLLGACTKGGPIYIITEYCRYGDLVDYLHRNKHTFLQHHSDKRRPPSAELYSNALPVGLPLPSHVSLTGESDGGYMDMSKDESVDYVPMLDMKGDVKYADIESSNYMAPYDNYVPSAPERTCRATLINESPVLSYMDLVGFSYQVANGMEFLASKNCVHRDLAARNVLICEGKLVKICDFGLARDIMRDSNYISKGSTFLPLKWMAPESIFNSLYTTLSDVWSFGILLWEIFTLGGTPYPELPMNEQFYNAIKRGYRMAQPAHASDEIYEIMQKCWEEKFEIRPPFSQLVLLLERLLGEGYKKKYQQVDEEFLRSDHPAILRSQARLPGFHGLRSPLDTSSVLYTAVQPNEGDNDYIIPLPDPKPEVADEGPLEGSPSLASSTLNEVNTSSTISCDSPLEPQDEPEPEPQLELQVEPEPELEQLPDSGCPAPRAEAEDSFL
METHOD_NOTES: Kinomescan active site-directed competition binding assay
RUN_PARAMETERS: 11-point dose response, read-out: Binding Affinity (Kd)
EXPERIMENTAL_ENDPOINT: Kd (nM)
Write it as a number; the unit nM goes unstated.

Given the compound `COC(=O)Nc1nc2ccc(C(=O)c3ccccc3)cc2[nH]1` , what is its reported Kd? 660
